GI50: recorded values
# System: TK-10
# PROTOCOL_DETAILS: NCI tumour cell line growth inhibition, 48 h
Calls of active or inactive are those of the source. Rule as the data show it: active = GI50 up to about 1.1 µM and inactive = higher.

{"COMPOUND": "N#CC(C(=O)CCC(=O)Nc1ccc(Cl)cc1)c1ccccc1Cl (stereo not given)", "GI50": "> 100 µM (inactive)"}
{"COMPOUND": "COC(=O)[C@H](C)NC(=O)[C@H](CSC)N1C(=O)N[C@@H](C(C)C)C1=O", "GI50": "> 100 µM (inactive)"}
{"COMPOUND": "C[C@H](CCC(=O)NCCS(=O)(=O)O)[C@H]1CC[C@H]2[C@@H]3[C@H](O)C[C@@H]4C[C@H](O)CC[C@]4(C)[C@H]3CC[C@]12C", "GI50": "> 100 µM (inactive)"}
{"COMPOUND": "COc1ccc(C=C2C(=O)OC(C)(C)OC2=O)cc1OC", "GI50": "> 100 µM (inactive)"}
{"COMPOUND": "CCN(CC)C(=S)SS(=O)(=O)c1ccccc1C(=O)O", "GI50": "> 100 µM (inactive)"}
{"COMPOUND": "N#Cc1nc(Nc2cccc3ccccc23)sc1N", "GI50": "40.6 µM (inactive)"}
{"COMPOUND": "CCOC(=O)c1c(SCCCN2CCCCC2)n(-c2ccccc2)c(=S)n(-c2ccccc2)c1=O", "GI50": "20.6 µM (inactive)"}
{"COMPOUND": "[N-]=[N+]=Nc1cc(=O)[nH]c2ccccc12", "GI50": "53 µM (inactive)"}
{"COMPOUND": "O=[N+]([O-])c1cc([N+](=O)[O-])c(/C=C/c2ccc(Cl)c(Cl)c2)cc1/C=C/c1ccc(Cl)c(Cl)c1", "GI50": "52.5 µM (inactive)"}
{"COMPOUND": "O=C1CCSc2c(cnc3ccccc23)N1", "GI50": "71.6 µM (inactive)"}
{"COMPOUND": "CCOC(=O)C(C(N)=O)C1=Nc2cc([N+](=O)[O-])ccc2N/C1=C\\C(=O)c1ccccc1 (stereo not given)", "GI50": "11 µM (inactive)"}
{"COMPOUND": "COc1ccc(C)cc(O)c1=O", "GI50": "> 100 µM (inactive)"}
{"COMPOUND": "CCN(CC)CCNc1ccc2nnn3c4ccc([N+](=O)[O-])cc4c(=O)c1c23", "GI50": "11.6 µM (inactive)"}
{"COMPOUND": "CC(Cc1ccccc1)N(C)Cc1nc(C2CCC([N+](=O)[O-])O2)no1 (stereo not given)", "GI50": "13.5 µM (inactive)"}
{"COMPOUND": "Cc1ccc2c(=O)c3cccc(CC(=O)O)c3[nH]c2c1C", "GI50": "> 100 µM (inactive)"}

###

# Test system: SK-MEL-5
# PROTOCOL_DETAILS: NCI tumour cell line growth inhibition, 48 h
Calls of active or inactive are those of the source. Rule as the data show it: active = GI50 up to about 1.1 µM and inactive = higher.
Classes used: active, inactive

{"MOLECULE": "C=C(C(=O)O)[C@@H]1C[C@@H](OC(C)=O)[C@]2(C)CC/C=C(\\C)CCC[C@H](C)[C@H](O)[C@@H]1O2", "CATEGORY": "inactive"}
{"MOLECULE": "CC(C)(C)OC(=O)NCCCCC(NC(=O)c1ccccc1)C(N)=O (stereo not given)", "CATEGORY": "inactive"}
{"MOLECULE": "COc1cc2cc3c4cc(OC)c(OC)cc4cc[n+]3c(C)c2cc1OC [CORALYNE]", "CATEGORY": "inactive"}
{"MOLECULE": "O=C1NC(=S)NC(=O)C1C(c1ccc(Cl)cc1)C1C(=O)NC(=S)NC1=O.c1ccncc1", "CATEGORY": "inactive"}
{"MOLECULE": "CO[C@]12C[C@@H](CNC(=O)c3cc(Br)c[nH]3)O[C@H]1NC(=O)N2", "CATEGORY": "inactive"}
{"MOLECULE": "N=C(/C=C/c1ccc(-c2cn3cc(/C=C/C(=N)N4CCOCC4)ccc3n2)cc1)N1CCOCC1", "CATEGORY": "inactive"}
{"MOLECULE": "O=C1NCCCc2nonc21", "CATEGORY": "inactive"}
{"MOLECULE": "N=C(N)c1ccc(/N=N/c2c(O)ccc3cc(O)ccc23)cc1", "CATEGORY": "inactive"}
{"MOLECULE": "N#Cc1sc2nc3ccccc3n2c1N", "CATEGORY": "inactive"}
{"MOLECULE": "NC(S)=Nc1cc(Cl)ccc1Cl", "CATEGORY": "inactive"}
{"MOLECULE": "CCCCCCCC/C=C1\\CCC(CN(C)C)C1=O (stereo not given)", "CATEGORY": "inactive"}
{"MOLECULE": "C=C1C(=O)O[C@H]2[C@H]1[C@H](OC(=O)/C(C)=C\\C)CC(=C)[C@@H]1[C@H](O)[C@H]3O[C@@]3(C)[C@@]12O [EUPATUNDIN]", "CATEGORY": "inactive"}
{"MOLECULE": "CS(=O)(=O)OCCCCOS(=O)(=O)CF", "CATEGORY": "inactive"}
{"MOLECULE": "CCCCCCc1ccc(C(=O)NO)cc1", "CATEGORY": "inactive"}
{"MOLECULE": "COc1ccc(-c2cc(O)c3cc(OC)ccc3n2)cc1", "CATEGORY": "inactive"}
{"MOLECULE": "COc1ncc(C=C(C#N)C#N)c(OC)n1", "CATEGORY": "inactive"}
{"MOLECULE": "S=C1CSc2c(cnc3ccccc23)N1", "CATEGORY": "inactive"}
{"MOLECULE": "COc1ccc(-c2cc(-c3ccco3)c(C#N)c(=O)n2C2OC(OC(=O)c3ccccc3)C(OC(=O)c3ccccc3)C2OC(=O)c2ccccc2)cc1 (stereo not given)", "CATEGORY": "inactive"}
{"MOLECULE": "Nc1ccc(C(=O)N/C(=C\\c2cccc([N+](=O)[O-])c2)c2nc3c(O)nc(S)nc3[nH]2)cc1", "CATEGORY": "inactive"}
{"MOLECULE": "O=C(Nc1ccn(C2CC(I)C(COC(c3ccccc3)(c3ccccc3)c3ccccc3)O2)c(=O)n1)c1ccccc1 (stereo not given)", "CATEGORY": "inactive"}
{"MOLECULE": "CCN(CC)CCn1ncc2ccc3c(c(=O)c4cccnc4n3CCN(CC)CC)c21", "CATEGORY": "active"}
{"MOLECULE": "Cc1cc(C)c(/C=N/NS(=O)(=O)c2ccccc2)c(C)c1", "CATEGORY": "inactive"}
{"MOLECULE": "Cn1c(=O)[nH]c2c(c1=O)C(=O)CN2", "CATEGORY": "inactive"}
{"MOLECULE": "COc1ccc(/C=c2\\s/c(=C3/SC(=S)N(c4ccccc4)C3=O)n(-c3ccccc3)c2=O)cc1", "CATEGORY": "inactive"}
{"MOLECULE": "N#Cc1c(N)c2c(c(-c3ccccc3)c1-c1ccccc1)C(=O)N(N)C2=O", "CATEGORY": "inactive"}
